Assignment: determine reported inhibition for the given compounds.
molecular target: 5-hydroxytryptamine receptor 2A (Rattus norvegicus) (UniProt P14842); test: Displacement of [3H]ketanserin from 5-HT2A receptor in Rattus norvegicus (rat) cortex membrane homogenates at 10 uM after 90 min by liquid scintillation counting analysis
Sequence (P14842 whole entry): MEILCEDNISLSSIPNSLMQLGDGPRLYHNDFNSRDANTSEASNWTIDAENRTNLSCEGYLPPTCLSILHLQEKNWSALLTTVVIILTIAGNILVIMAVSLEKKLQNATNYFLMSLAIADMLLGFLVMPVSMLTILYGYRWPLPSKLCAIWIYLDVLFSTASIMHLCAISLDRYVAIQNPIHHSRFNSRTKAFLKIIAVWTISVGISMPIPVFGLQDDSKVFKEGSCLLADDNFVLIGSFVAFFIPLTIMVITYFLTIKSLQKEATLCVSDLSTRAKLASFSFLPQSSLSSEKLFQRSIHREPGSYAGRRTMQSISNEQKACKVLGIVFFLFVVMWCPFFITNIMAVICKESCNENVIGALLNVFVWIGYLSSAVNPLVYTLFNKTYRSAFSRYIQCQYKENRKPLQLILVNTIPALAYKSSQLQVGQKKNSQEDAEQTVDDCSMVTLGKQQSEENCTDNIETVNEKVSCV
Numbers only, in %.

Cc1nc(-c2ccc(CCN3CCN(c4cnc5ccccc5n4)CC3)cc2)cs1 :: 63

Fill in inhibition for each of the 3 compounds listed.
1. COc1nc2ccccc2nc1N1CCN(CCc2ccc(-c3csc(N)n3)cc2)CC1
2. COc1nc2ccccc2nc1N1CCN(CCc2ccc(-c3csc(C)n3)cc2)CC1
3. Nc1nc(-c2ccc(CCN3CCN(c4cnc5ccccc5n4)CC3)cc2)cs1

Marked response:
1. 49
2. 68
3. 51
